- Measured on: BRD4 BD2 (Homo sapiens, UniProt O60885)
- Test: AlphaScreen binding assay, BRD4 Bromodomain 2
Attribute measured: IC50

Use these answered entries as a reference point.
CC(=O)N1c2ccc(-c3cnn(C4CC4)c3)cc2N(C(=O)Oc2cncc(Cl)c2)C[C@@H]1C : < 0.05 µM
CC(=O)N1c2ccc(-c3ccc(C(=O)N(C)CCN4CCCC4)cc3)cc2N(C(=O)OC(C)C)C[C@@H]1C : 0.05 to 0.5 µM
CC(=O)N1c2ccc(-c3cnn(C4CCNCC4)c3)cc2N(C(=O)C2CC2)C[C@@H]1C : < 0.05 µM

Moving on to the next compound.
Find IC50 (BRD4 BD2 (Homo sapiens, UniProt O60885)) for the entry `CC(C)OC(=O)N1C[C@H](C)N(C(=O)C2CC2)c2ccc(-c3cnn(CCn4ccnc4)c3)cc21` 0.05 to 0.5 µM

* * *

- Measured on: BRD4 BD1 (Homo sapiens)
- Test: AlphaScreen binding assay, BRD4 Bromodomain 1
pIC50: −log10 of the molar value.
Attribute measured: pIC50

CC(=O)N1c2cc(C(N)=O)c(-c3cnn(C4CC4)c3)cc2N(C(=O)OC(C)C)C[C@@H]1C [Example I-212] : 6.00 to 7.00
CC(=O)N1c2ccc(-c3ccc(S(C)(=O)=O)c(F)c3)cc2N(C(=O)C2CCC2)C[C@@H]1C [Example I-1083] : 5.00 to 6.00
CC(=O)N1c2ccc(-c3cnn(C4COC4)c3)cc2N(C(=O)CC(F)(F)F)C[C@@H]1C [Example I-108] : < 5.00
CC(=O)N1c2ccc(-c3cc4ccccc4n3C)cc2N(C(=O)c2ccco2)C[C@@H]1C [Example I-839] : < 5.00
CC(=O)N1c2ccccc2N(S(=O)(=O)C2CC2)C[C@@H]1C [Example I-952] : < 5.00

Consider the molecule CC(=O)N1c2ccc(-c3ccc4c(c3)CCN4S(C)(=O)=O)cc2N(C(=O)c2ccco2)C[C@@H]1C [Example I-299] and give its measured pIC50. 6.00 to 7.00

Moving on to CC(=O)N1c2ccccc2N(C(=O)Cc2ccc(-c3ccccc3)cc2)C[C@@H]1C [Example I-707] < 5.00

Lookup CC(=O)N1c2ccc(-c3ccns3)cc2N(C(=O)c2ccco2)C[C@@H]1C [Example I-434] 5.00 to 6.00

Repeat for the following molecule: CC(=O)N1c2ccc(-c3cnn(C4COC4)c3)cc2N(C(=O)OCC(F)(F)F)C[C@@H]1C [Example I-71] > 7.00

// same read-out, input: CC(=O)N1c2ccc(-c3cnn(C4CC4)c3)cc2N(C(=O)Oc2cccc(C#N)c2)C[C@@H]1C [Example I-501] 6.00 to 7.00

Moving on to the next molecule: CNC(=O)N1c2ccc(-c3ccc(S(C)(=O)=O)cc3)cc2N(C(=O)c2ccco2)C[C@@H]1C [Example I-988] 5.00 to 6.00

Now try CC(=O)N1c2ccc(-c3cnn(Cc4ccnn4C)c3)cc2N(C(=O)OC(C)C)C[C@@H]1C [Example I-680] . 6.00 to 7.00

Also check CC(=O)N1c2ccccc2N(Cc2ccccc2C)C[C@@H]1C [Example I-896] < 5.00

Lookup CC(=O)N1c2ccc(-c3cnn(CCN(C)C)c3)cc2N(C(=O)C2CC2)C[C@@H]1C [Example I-146] 5.00 to 6.00

Lookup COC(=O)N1c2ccc(-c3cnn(CCn4ccnc4)c3)cc2N(C(=O)OC(C)C)C[C@@H]1C [Example I-627] 6.00 to 7.00

Now try CC(=O)N1c2ccc(-c3ccc(Cl)cc3)cc2N(C(=O)c2ccco2)C[C@@H]1C [Example I-805] . 5.00 to 6.00
